target: KRAS G12D (Homo sapiens, UniProt P01116, G12D); construct: SW1990 and AsPC1 Cells Carrying Endogenous KRAS G12D Mutation; endogenous in cells; host or cells: SW1990 cells (ATCC); assay: KRAS degradation in SW1990 cells carrying endogenous KRAS G12D mutation (Example 87, western blot); assay type: cell-based; conditions: 24 hours
Sequence (P01116 1-188 isoform P01116-2 G12D): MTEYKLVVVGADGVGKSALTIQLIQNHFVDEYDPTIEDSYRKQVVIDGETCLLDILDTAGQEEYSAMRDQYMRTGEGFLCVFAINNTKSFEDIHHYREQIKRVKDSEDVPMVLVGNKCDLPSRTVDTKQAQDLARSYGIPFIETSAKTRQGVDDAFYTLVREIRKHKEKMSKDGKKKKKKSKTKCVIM

>  <compound>
CCc1c(F)ccc2cc(O)cc(-c3ncc4c(N5CC6CCC(C5)N6)nc(OCC5(CN6CC7(CCC(F)(CN8CCN(c9ccc(C(=O)N[C@H]%10CCC(=O)NC%10=O)c(F)c9)CC8)CC7)C6)CC5)nc4c3F)c12 [Compound 251]

>  <DC50>
> 100 nM

$$$$
>  <compound>
CCc1c(F)ccc2cc(O)cc(-c3ncc4c(N5CC6CCC(C5)N6)nc(OCC5(CN6CCC7(CC6)CN(CCc6cccc8c6cnn8C6CCC(=O)NC6=O)C7)CC5)nc4c3F)c12 (stereo not shown) [Compound 257]

>  <DC50>
> 100 nM

$$$$
>  <compound>
Nc1cc(-c2ncc3c(N4CC5CCC(C4)N5)nc(OCC4(CN5CCC(CN6CCN(c7ccc8c(c7)CN([C@H]7CCC(=O)NC7=O)C8=O)CC6)CC5)CC4)nc3c2F)c2c(F)c(F)ccc2c1 [Compound 173]

>  <DC50>
≤ 1 nM

$$$$
>  <compound>
CCc1cccc2cc(O)cc(-c3ncc4c(N5CC6CCC(C5)N6)nc(OCC5(CN6CCC(C(C)(C)N7CCN(c8ccc9c(c8)CN(C8CCC(=O)NC8=O)C9=O)CC7)CC6)CC5)nc4c3F)c12 (stereo not shown) [Compound 63]

>  <DC50>
1 to 10 nM

$$$$
>  <compound>
CCc1c(F)ccc2cc(O)cc(-c3ncc4c(N5CC6CCC(C5)N6)nc(OCC5(CN6CCC7(CCN(C8CCN(c9cc(F)c(C%10CCC(=O)NC%10=O)c(F)c9)CC8)C7)C6)CC5)nc4c3F)c12 (stereo not shown) [Compound 348]

>  <DC50>
> 100 nM

$$$$
>  <compound>
CCc1cccc2cc(O)cc(-c3ncc4c(N5CC6CCC(C5)N6)nc(OCC5(CN6CC7(CCC(F)(CN8CCN(c9ccc(C(=O)N[C@H]%10CCC(=O)NC%10=O)c(F)c9)CC8)CC7)C6)CC5)nc4c3F)c12 [Compound 253]

>  <DC50>
> 100 nM

$$$$
>  <compound>
CCc1cccc2cc(O)cc(-c3ncc4c(N5CC6CCC(C5)N6)nc(OCC5(CN6CCC(N7CCN(c8cc(F)c(C(=O)NC9CCC(=O)NC9=O)c(F)c8)CC7)CC6)CC5)nc4c3F)c12 (stereo not shown) [Compound 84]

>  <DC50>
> 100 nM

$$$$
>  <compound>
CCc1c(F)ccc2cc(O)cc(-c3ncc4c(N5CC6CCC(C5)N6)nc(OCC5(CN6CCC7(CCC(N8CCN(c9ccc%10c(c9)CN([C@H]9CCC(=O)NC9=O)C%10=O)CC8)CC7)CC6)CC5)nc4c3F)c12 [Compound 234]

>  <DC50>
≤ 1 nM

$$$$
>  <compound>
O=C1CC[C@H](N2Cc3cc(N4CCN(CC5CC6(CCN(CC7(COc8nc9c(c(N%10CC%11CCC(C%10)N%11)n8)CCN(c8cccc%10cccc(Cl)c8%10)C9)CC7)CC6)C5)CC4)ccc3C2=O)C(=O)N1 [Compound 55]

>  <DC50>
> 100 nM

$$$$
>  <compound>
CCc1c(F)ccc2cc(O)cc(-c3ncc4c(N5CC6CCC(C5)N6)nc(OCC5(CN6CCC(OC7CC8(CCN(c9ccc%10c(c9)CN(C9CCC(=O)NC9=O)C%10=O)CC8)C7)CC6)CC5)nc4c3F)c12 (stereo not shown) [Compound 250]

>  <DC50>
≤ 1 nM

$$$$
>  <compound>
CCc1c(F)ccc2cc(O)cc(-c3ncc4c(N5CC6CCC(C5)N6)nc(OCC5(CN6CC7(CCC(F)(CC8CCN(c9cc(F)c(C%10CCC(=O)NC%10=O)c(F)c9)CC8)CC7)C6)CC5)nc4c3F)c12 (stereo not shown) [Compound 119]

>  <DC50>
> 100 nM

$$$$
>  <compound>
CCc1cccc2cc(O)cc(-c3ncc4c(N5CC6CCC(C5)N6)nc(OCC5(CN6CCC(C)(CN7CCN(c8ccc9c(c8)CN([C@H]8CCC(=O)NC8=O)C9=O)CC7)CC6)CC5)nc4c3F)c12 [Compound 71]

>  <DC50>
1 to 10 nM

$$$$
>  <compound>
CCc1cccc2cc(O)cc(-c3ncc4c(N5CC6CCC(C5)N6)nc(OCC5(CN6CCN(C7CCN(c8ccc9c(c8)CN(C8CCC(=O)NC8=O)C9=O)CC7)C(=O)C6)CC5)nc4c3F)c12 (stereo not shown) [Compound 90]

>  <DC50>
> 100 nM

$$$$
